# TESTED_ON: PD-L1 (Homo sapiens (Human), UniProt Q9NZQ7)
# Sequence (Q9NZQ7 19-238): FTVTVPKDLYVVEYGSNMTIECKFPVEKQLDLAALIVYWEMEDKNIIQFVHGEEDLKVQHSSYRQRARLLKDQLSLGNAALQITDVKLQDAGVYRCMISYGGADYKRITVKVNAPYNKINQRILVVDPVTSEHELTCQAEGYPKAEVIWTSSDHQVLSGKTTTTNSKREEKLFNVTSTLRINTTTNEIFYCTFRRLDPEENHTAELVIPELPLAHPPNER
# Sequence (Q9NZQ7 19-238): as above
# ASSAY_COMMENT: PD-L1/PD-L1 dimerization biochemical protein-protein interaction assay (ALPHA)
# Assay type: binding
# EXPERIMENTAL_CONDITIONS: 0.5 nM His tagged PD-L1 and 0.5 nM FLAG tagged PD-L1, Table 4B, read-out: AC50 PDL1 Dimer 1 nM
Exercise: state measured AC50 for each of the compounds provided.
Answers are plain numbers, in nM.

Recorded results for 10 compounds are shown here.
Task: Quick one: AC50 of COc1nc(O[C@H]2CCc3c(-c4cccc(-c5cc(C)c(CN6CC(C)(O)C6)c(OC)n5)c4Cl)cccc32)c(Cl)cc1CN1CC(C(=O)O)C1 ?
Output: 107

Task: Now consider COc1nc(-c2cccc(-c3cccc4c3SC[C@@H]4Oc3nc(OC)c(CNC[C@@H]4CCC(=O)N4)cc3Cl)c2Cl)ccc1CNC[C@@H]1CCC(=O)N1 and answer again.
Output: 58.5

Task: Now consider COc1nc(-c2cccc(-c3cccc4c3CC[C@@H]4Oc3nc(OC)c(CNC4(C(=O)O)CCC4)cc3C(F)(F)F)c2Cl)ccc1CNC[C@@H]1CCC(=O)N1 and answer again.
Output: 3.14

Task: Now consider CNC(=O)C1CN(Cc2cc(Cl)c(O[C@H]3CCc4c(-c5cccc(-c6ccc(CNC[C@@H]7CCC(=O)N7)c(OC)n6)c5Cl)cccc43)nc2OC)C1 and answer again.
Output: 64.8

Task: Now consider COc1nc(-c2cccc(-c3cccc4c3CC[C@@H]4Oc3nc(OC)c(CN4CC[C@@H](C(=O)N=S(C)(=O)NC(=O)C(F)(F)F)C4)cc3Cl)c2Cl)ccc1CNC[C@@H]1CCC(=O)N1 (some centres unmarked) and answer again.
Output: 134

Task: Now consider COc1nc(-c2cccc(-c3cccc4c3CC[C@@H]4Oc3nc(OCc4cc(Cl)cc(C#N)c4)c(CN4CC5(C(=O)O)CCC4CC5)cc3Cl)c2Cl)ccc1CNC[C@@H]1CCC(=O)N1 and answer again.
Output: 32.3

Task: Now consider COc1nc(-c2cccc(-c3cccc4c3CC[C@@H]4Oc3nc(OC)c(CN4C[C@@H]5CCC[C@]5(C(=O)O)C4)cc3Cl)c2Cl)ccc1CN1CC(C)(O)C1 and answer again.
Output: 211

Task: Now consider CNC(=O)CCNCc1cc(Cl)c(O[C@H]2CCc3c(-c4cccc(-c5ccc(CNC[C@@H]6CCC(=O)N6)c(OC)n5)c4Cl)cccc32)nc1OC and answer again.
Output: 18.7

Task: Now consider COc1nc(-c2cccc(-c3cccc4c3CC[C@@H]4Oc3nc(OC)c(CN[C@H](C)CC(=O)O)cc3C(F)(F)F)c2Cl)ccc1CN[C@H]1C[C@](C)(O)C1 and answer again.
Output: 8.73

Task: Now consider COc1nc(-c2cccc(-c3cccc4c3CC[C@@H]4Oc3nc(OC)c(CNC[C@H]4C[C@](C)(O)C4)cc3C(F)(F)F)c2Cl)ccc1CNC[C@@H]1CCC(=O)N1 and answer again.
Output: 4.63

More entries:
Task: Quick one: AC50 of COc1nc(-c2cccc(-c3cccc4c3CC[C@@H]4Oc3nc(OC)c(CN4CC(C(=O)NS(=O)(=O)C(F)F)C4)cc3Cl)c2Cl)ccc1CNC[C@@H]1CCC(=O)N1 ?
Output: 97.1

====

# TESTED_ON: PD-L1 (Homo sapiens (Human))
# ASSAY_COMMENT: PD-L1/PD-L1 dimerization biochemical protein-protein interaction assay (ALPHA)
# Assay type: binding
# EXPERIMENTAL_CONDITIONS: 0.5 nM His tagged PD-L1 and 0.5 nM FLAG tagged PD-L1, Table 4B, read-out: AC50 PDL1 Dimer 1 nM
Friendly reminder: AC50 below 20 nM is fulfilled, at or above is not fulfilled.

# example entries with known answers
Task: Is it true that AC50 reported for COc1nc(-c2cccc(-c3cccc4c3CC[C@@H]4Oc3nc(OC)c(CN4CC(C(=O)O)C5(CC5)C4)cc3Cl)c2Cl)ccc1CNC[C@@H]1CCC(=O)N1 (stereo partly drawn) is less than 20 nM?
Output: not fulfilled

Task: Now consider COc1nc(-c2cccc(-c3cc(F)cc4c3CC[C@@H]4Oc3nc(OC)c(CN4CC[C@@H](C(=O)O)C4)cc3C(F)(F)F)c2Cl)ccc1CNC[C@@H]1CCC(=O)N1 and answer again.
Output: not fulfilled

Task: Now consider COc1nc(O[C@H]2CCc3c(-c4cccc(-c5ccc(CNC[C@@H]6CCC(=O)N6)c(OCC#N)n5)c4Cl)cccc32)c(C(F)(F)F)cc1CN1CC[C@@H](C(=O)O)C1 and answer again.
Output: fulfilled

Task: Now consider COc1nc(-c2cccc(-c3cccc4c3CC[C@@H]4Oc3nc(OC)c(CN4CCC[C@@]4(C)C(=O)O)cc3C)c2Cl)ccc1CNC[C@@H]1CCC(=O)N1 and answer again.
Output: not fulfilled

More entries:
Task: Is it true that AC50 reported for COc1nc(-c2cccc(-c3cccc4c3CC[C@@H]4Oc3nc(OCc4cncc(F)c4)c(CN4CC5(C(=O)O)CCC4CC5)cc3Cl)c2Cl)ccc1CNC[C@@H]1CCC(=O)N1 is less than 20 nM?
Output: fulfilled

Task: Now consider COc1nc(-c2cccc(-c3cccc4c3CC[C@@H]4Oc3nc(OC)c(CNCCC(=O)O)cc3C(F)(F)F)c2Cl)ccc1CN[C@H]1C[C@](C)(O)C1 and answer again.
Output: fulfilled

====

# TESTED_ON: PD-1/PD-L1 (Homo sapiens (Human))
# ASSAY_COMMENT: PD-1/PD-L1 biochemical protein-protein interaction assay (ALPHA)
# Format: binding
# EXPERIMENTAL_CONDITIONS: 0.3 nM His tagged PD-L1, 2.5 nM biotinylated Fc-PD-1, Table 3B, read-out: IC50 PD-L1-PD1
# Experimental: Compounds were tested in biochemical protein-protein interaction assays to determine if they can specifically block the interaction between the extracellular domains of PD-1/PD-L1 or CTLA/CD80. Binding of the protein pairs is measured using a bead based Amplified Luminescent Proximity Homogeneous Assay (ALPHA) platform. […] Final protein concentration in the assays were 0.3 nM (His tagged PD-L1), 2.5 nM (biotinylated Fc-PD-1), 1 nM (His tagged CTLA4) and 1 nM (biotinylated CD80).
OBSERVED_PROPERTY: IC50 (nM)
One number for each entry, in nM.

Recorded results for 5 compounds are shown here.
Task: Quick one: IC50 of CNC(=O)C1CCN(Cc2ccc(-c3cccc(-c4cccc5c4CC[C@@H]5Oc4nc(OC)c(CN5CCC(C(=O)NC)C5)cc4Cl)c3Cl)nc2OC)C1 (some centres unmarked) ?
Output: 0.064

Task: Now consider COc1nc(-c2cccc(-c3cccc4c3CC[C@@H]4Oc3nc(OC)c(CN[C@H](C(=O)O)C(C)C)cc3C(F)(F)F)c2Cl)ccc1CN[C@H]1C[C@](C)(O)C1 and answer again.
Output: 0.064

Task: Now consider COc1nc(-c2cccc(-c3cccc4c3CC[C@@H]4Oc3nc(OC)c(CN4CC5(C(=O)O)CCC4CC5)cc3Cl)c2C)ccc1CNC[C@@H]1CCC(=O)N1 and answer again.
Output: 0.064

Task: Now consider COc1nc(-c2cccc(-c3cccc4c3CC[C@@H]4Oc3nc(OC)c(CN[C@H]4C[C@](C)(O)C4)cc3C(F)(F)F)c2Cl)ccc1CNC[C@@H]1CCC(=O)N1 and answer again.
Output: 0.064

Task: Now consider CNC(=O)CCNCc1cc(Cl)c(O[C@H]2CCc3c(-c4cccc(-c5ccc(CNC[C@@H]6CCC(=O)N6)c(OC)n5)c4Cl)cccc32)nc1OC and answer again.
Output: 0.111

Report IC50 for every entry below.
1. COc1nc(-c2cccc(-c3cccc4c3CC[C@@H]4Oc3nc(OC)c(CN(C)[C@@H](C)C(=O)O)cc3C(F)(F)F)c2Cl)ccc1CNC[C@@H]1CCC(=O)N1
2. COc1nc(-c2cccc(-c3cccc4c3CC[C@@H]4Oc3nc(OC)c(CNCC(=O)O)cc3C(F)(F)F)c2Cl)ccc1CNC[C@H]1C[C@](C)(O)C1
3. COc1nc(-c2cccc(-c3cccc4c3CC[C@@H]4Oc3nc(OC)c(CN4C[C@@H]5C[C@@H]5[C@H]4C(=O)O)cc3C(F)(F)F)c2Cl)ccc1CNC[C@@H]1CCC(=O)N1
4. COc1nc(-c2cccc(-c3cccc4c3CC[C@@H]4Oc3nc(OC)c(CN4C[C@@H]5C[C@]5(C(=O)O)C4)cc3Cl)c2Cl)ccc1CNC[C@@H]1CCC(=O)N1
5. COc1nc(-c2cccc(-c3cccc4c3CC[C@@H]4Oc3nc(OC)c(CN4C[C@@H](C)[C@H]4C(=O)O)cc3Cl)c2Cl)ccc1CNC[C@@H]1CCC(=O)N1

Output:
0.064
0.064
0.064
0.064
0.064

Task: Quick one: IC50 of COc1nc(-c2cccc(-c3cccc4c3CC[C@@H]4Oc3nc(OC)c(CN4CC5(C(=O)O)CCC4CC5)nc3C)c2Cl)ccc1CNC[C@@H]1CCC(=O)N1 ?
Output: 0.064
